Molecular target: Recombinant purified human JAK3 (Homo sapiens, UniProt P52333)
Sequence (P52333 whole entry): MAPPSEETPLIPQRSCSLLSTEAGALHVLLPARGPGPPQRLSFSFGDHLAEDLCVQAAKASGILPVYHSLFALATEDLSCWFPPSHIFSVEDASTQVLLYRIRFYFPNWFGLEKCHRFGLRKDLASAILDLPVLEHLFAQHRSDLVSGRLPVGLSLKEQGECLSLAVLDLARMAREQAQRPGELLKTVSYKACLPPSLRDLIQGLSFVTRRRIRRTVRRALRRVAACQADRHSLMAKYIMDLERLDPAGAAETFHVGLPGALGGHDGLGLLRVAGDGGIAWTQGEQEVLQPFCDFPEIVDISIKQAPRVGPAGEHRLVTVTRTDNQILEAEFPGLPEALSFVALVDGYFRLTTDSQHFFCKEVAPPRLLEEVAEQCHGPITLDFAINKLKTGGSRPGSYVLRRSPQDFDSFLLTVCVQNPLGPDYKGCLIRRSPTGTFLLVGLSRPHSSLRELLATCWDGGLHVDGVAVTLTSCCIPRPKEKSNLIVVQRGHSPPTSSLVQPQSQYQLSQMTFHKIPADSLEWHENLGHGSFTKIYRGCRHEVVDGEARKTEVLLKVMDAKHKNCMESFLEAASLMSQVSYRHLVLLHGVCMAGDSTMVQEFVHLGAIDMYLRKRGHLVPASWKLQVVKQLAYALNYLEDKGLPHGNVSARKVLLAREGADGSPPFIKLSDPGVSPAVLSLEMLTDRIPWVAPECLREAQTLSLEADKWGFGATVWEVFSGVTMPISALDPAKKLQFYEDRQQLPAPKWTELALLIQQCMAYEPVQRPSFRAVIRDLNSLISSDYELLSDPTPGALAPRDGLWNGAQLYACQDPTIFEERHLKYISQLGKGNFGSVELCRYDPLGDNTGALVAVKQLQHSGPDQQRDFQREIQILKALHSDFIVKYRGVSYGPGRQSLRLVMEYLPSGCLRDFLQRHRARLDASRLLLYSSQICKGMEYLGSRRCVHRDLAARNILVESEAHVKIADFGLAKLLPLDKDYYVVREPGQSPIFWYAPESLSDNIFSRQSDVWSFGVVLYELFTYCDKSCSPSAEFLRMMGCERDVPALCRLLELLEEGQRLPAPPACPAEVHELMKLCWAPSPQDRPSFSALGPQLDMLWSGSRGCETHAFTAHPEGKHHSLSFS
Assay: JAK3 kinase inhibitory activity, ADP-Glo kinase assay (Promega V9441)
Conditions: ATP 5 uM, 4 ng JAK3 per reaction, 1 hour 30 °C, chemiluminescence
Entries and their measured IC50 follow.
// units = nM; emit number, no label

Some solved cases for reference:
- compound: "C=CC(=O)N1CC[C@@H](C)[C@@H](Nc2nc(Nc3cnn(CCN4CCOCC4)c3)nc3[nH]nc(Cl)c23)C1 [Example 123]"
  unitsSymbol: "nM"
  IC50: 7.9
- compound: "C=CC(=O)N1CCC[C@@H](Nc2nc(Nc3cnn(CC)c3)nc3[nH]nc(C)c23)C1 [Example 185]"
  unitsSymbol: "nM"
  IC50: 15.1
- compound: "C=CC(=O)N1CCC[C@@H](N(C)c2nc(Nc3cnn(CC)c3)nc3[nH]nc(Cl)c23)C1 [Example 118]"
  unitsSymbol: "nM"
  IC50: 3.2
- compound: "C=CC(=O)N1CCC[C@@H](Oc2nc(Nc3cnn(C4CC4)c3)nc3[nH]nc(Cl)c23)C1 [Example 153]"
  unitsSymbol: "nM"
  IC50: 1.6

Item under review: C=CC(=O)N1CCC[C@@H](Nc2nc(Nc3ccc4ncsc4c3)nc3[nH]ccc23)C1 [Example 12] . Reported IC50?
1.3

Item under review: C=CC(=O)N1CCC[C@@H](Nc2nc(Nc3cnn(CCN4CCOCC4)c3)nc3[nH]ncc23)C1 [Example 72] . Reported IC50?
2.2

Item under review: C=CC(=O)N1CC[C@@H](C)[C@@H](Nc2nc(Nc3cnn(CCC)c3)nc3[nH]nc(Cl)c23)C1 [Example 121] . Reported IC50?
18

###

Target: Recombinant purified human JAK3 (Homo sapiens, UniProt P52333)
Assay: JAK3 kinase inhibitory activity, ADP-Glo kinase assay (Promega V9441)
Settings: ATP 5 uM, 4 ng JAK3 per reaction, 1 hour 30 °C, chemiluminescence
assayEndpoint: pIC50
Worth noting: pIC50 values are minus log10 of concentrations stated in mol/L.

- molecule: "C=CC(=O)N1CCC[C@@H](Nc2nc(Nc3cnn(C(C)(C)C)c3)nc3[nH]nc(SC)c23)C1"
  targetEntity: "Recombinant purified human JAK3 (Homo sapiens, UniProt P52333)"
  experimentalResult: 8.52

Item under review: C=CC(=O)N1CCC[C@@H](Nc2nc(Nc3ccc(N4CCCC4)cc3)nc3[nH]ccc23)C1 . Reported pIC50?
7.61

Item under review: CC(C)/C=C(\C#N)C(=O)N1CCC[C@@H](Oc2nc(Nc3cnn(C4CC4)c3)nc3[nH]nc(Cl)c23)C1 . Reported pIC50?
8.54

Item under review: CCn1cc(Nc2nc(N(C)[C@@H]3CCCN(C(=O)/C(C#N)=C/C(C)C)C3)c3c(Cl)n[nH]c3n2)cn1 . Reported pIC50?
7.74

Item under review: C=CC(=O)N1CCC[C@@H](Oc2nc(Nc3cnn(C4CC4)c3)nc3[nH]cc(C#N)c23)C1 . Reported pIC50?
9.52

Item under review: C=CC(=O)N1CCC[C@@H](Nc2nc(Nc3ccc(C(=O)N4CCOCC4)cc3)nc3[nH]cc(Cl)c23)C1 . Reported pIC50?
9.15

Item under review: C=CC(=O)N1CCC[C@@H](Nc2nc(Nc3cnn(C(C)C)c3)nc3[nH]nc(Cl)c23)C1 . Reported pIC50?
9.10

Item under review: C=CC(=O)N1CCC[C@@H](Nc2nc(Nc3cnn(CC(C)C)c3)nc3[nH]ncc23)C1 . Reported pIC50?
8.26

Item under review: C=CC(=O)N1CCC[C@@H](Nc2nc(Nc3ccc4ncsc4c3)nc3[nH]cc(C)c23)C1 . Reported pIC50?
8.42

Item under review: C=CC(=O)N1CCC[C@@H](Nc2nc(Nc3ccc(N4CCOCC4)cc3)nc3[nH]ccc23)C1 . Reported pIC50?
8.16
